target or test system: SmChiB (Serratia marcescens)
Construct: made in house; host or cells: Escherichia coli BL21 (DE3)
Sequence (P11797 42-499): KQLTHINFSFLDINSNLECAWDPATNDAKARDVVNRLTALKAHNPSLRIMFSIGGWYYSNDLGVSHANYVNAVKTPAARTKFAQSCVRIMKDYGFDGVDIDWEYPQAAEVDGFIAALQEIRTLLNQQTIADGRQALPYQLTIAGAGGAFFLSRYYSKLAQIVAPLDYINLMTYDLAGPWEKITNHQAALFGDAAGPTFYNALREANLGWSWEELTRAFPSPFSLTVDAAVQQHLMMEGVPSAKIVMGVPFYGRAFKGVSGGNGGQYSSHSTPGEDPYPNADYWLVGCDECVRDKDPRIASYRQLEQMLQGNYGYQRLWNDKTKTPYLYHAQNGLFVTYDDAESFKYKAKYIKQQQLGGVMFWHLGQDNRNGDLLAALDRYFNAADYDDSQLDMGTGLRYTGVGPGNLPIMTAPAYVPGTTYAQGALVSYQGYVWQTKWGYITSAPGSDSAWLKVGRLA
assay name: biochemical
Assay type: biochemical
condition parameters: SmChiB; pH 6.0; Dixon plots; read-out: Ki
metric name: pKi
// field semantics: pKi = negative decimal log of concentration (mol/L)

# sample smiles, target or test system, pKi
measured = [
    ("COc1ccc2cc3[n+](cc2c1OC(=O)c1ccc(F)nc1)CCc1cc2c(cc1-3)OCO2", "SmChiB (Serratia marcescens)", 6.82),
    ("COc1ccc2cc3[n+](cc2c1OC(=O)c1ccccc1)CCc1cc2c(cc1-3)OCO2", "SmChiB (Serratia marcescens)", 5.63),
]

Known value: SmChiB (Serratia marcescens) pKi of the compound COC(=O)CCC(=O)Oc1c(OC)ccc2cc3[n+](cc12)CCc1cc2c(cc1-3)OCO2 equals 6.17

====

target or test system: SmChiB (Serratia marcescens)
Construct: made in house; host or cells: Escherichia coli BL21 (DE3)
assay name: biochemical
Type: biochemical
metric name: Ki

Looking up COc1ccc2cc3[n+](cc2c1OC)CCc1cc2c(cc1-3)OCO2 , I see its Ki listed as 11.8 µM

====

target or test system: HsCht (Homo sapiens, UniProt Q13231)
Sequence (Q13231 22-388 limits assumed): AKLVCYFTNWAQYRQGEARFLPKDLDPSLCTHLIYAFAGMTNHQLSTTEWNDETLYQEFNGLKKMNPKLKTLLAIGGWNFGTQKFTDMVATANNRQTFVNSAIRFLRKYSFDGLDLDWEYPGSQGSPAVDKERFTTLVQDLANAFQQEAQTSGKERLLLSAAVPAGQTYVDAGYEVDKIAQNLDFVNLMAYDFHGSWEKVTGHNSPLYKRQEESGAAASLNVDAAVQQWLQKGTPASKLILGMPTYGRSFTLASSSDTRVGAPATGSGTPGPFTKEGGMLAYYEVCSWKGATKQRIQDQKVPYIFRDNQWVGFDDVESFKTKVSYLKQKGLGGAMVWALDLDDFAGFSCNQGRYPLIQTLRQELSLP
metric name: Kd (µM)
Dear colleague, please return just the value in µM, with no unit written.

Reported Kd of COc1ccc2cc3[n+](cc2c1OC)CCc1cc2c(cc1-3)OCO2 : 21.9

====

target or test system: HsCht (Homo sapiens)
Construct: including the catalytic domains of OfChtI from O. furnacalis, human HsCht and human hAMCase; made in house; host or cells: Pichia pastoris GS115
assay name: Inhibitory activity assay with MU-(GlcNAc)2, Ki by Dixon plots
Assay type: biochemical
condition parameters: pH 6.0
metric name: pKi
Quick note: pKi means taking -log10 of the concentration in moles per liter.

# compound, pKi
measured = [
    ("COc1ccc2cc3[n+](cc2c1OC(=O)c1ccccc1)CCc1cc2c(cc1-3)OCO2 [4b]", 4.94),
]

The record that follows has no pKi shown yet.
The measured pKi associated with COC(=O)CCC(=O)Oc1c(OC)ccc2cc3[n+](cc12)CCc1cc2c(cc1-3)OCO2 [4a] reads 5.08

====

target or test system: hAMCase (Homo sapiens, UniProt Q9BZP6)
Construct: including the catalytic domains of OfChtI from O. furnacalis, human HsCht and human hAMCase; made in house; host or cells: Pichia pastoris GS115
Sequence (Q9BZP6 22-390 limits assumed): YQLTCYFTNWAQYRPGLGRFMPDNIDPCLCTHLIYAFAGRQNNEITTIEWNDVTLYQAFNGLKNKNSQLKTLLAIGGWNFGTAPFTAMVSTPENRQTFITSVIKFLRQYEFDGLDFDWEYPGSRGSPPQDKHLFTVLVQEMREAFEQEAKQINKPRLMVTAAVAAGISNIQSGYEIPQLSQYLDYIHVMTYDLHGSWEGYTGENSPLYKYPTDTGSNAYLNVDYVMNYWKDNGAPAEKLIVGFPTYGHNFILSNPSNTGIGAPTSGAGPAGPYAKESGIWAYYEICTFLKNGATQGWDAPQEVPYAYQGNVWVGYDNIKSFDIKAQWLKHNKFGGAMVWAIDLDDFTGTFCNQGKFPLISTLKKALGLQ
assay name: Inhibitory activity assay with MU-(GlcNAc)2, Ki by Dixon plots
Assay type: biochemical
condition parameters: pH 5.2
Each record here notes measured pKi.
The value called pKi is obtained by taking minus log10 of the concentration in mol/L.

# molecule, target or test system, pKi
rows = [
    ("COc1ccc2cc3[n+](cc2c1OC(=O)c1ccccc1)CCc1cc2c(cc1-3)OCO2 [4b]", "hAMCase (Homo sapiens, UniProt Q9BZP6)", 5.34),
]

Kindly note the recorded pKi for COC(=O)CCC(=O)Oc1c(OC)ccc2cc3[n+](cc12)CCc1cc2c(cc1-3)OCO2 [4a] , which is 5.13

Source: paper PMC7655067
